In this section, each of the compounds is paired with its reported ΔG.
- system-tested: rAtACBP6 (Arabidopsis thaliana, UniProt P57752)
- Construct: made in house; host or cells: Escherichia coli
- Sequence (P57752 1-92): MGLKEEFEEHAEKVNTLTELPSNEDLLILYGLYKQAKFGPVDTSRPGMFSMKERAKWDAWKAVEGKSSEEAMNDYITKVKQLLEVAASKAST
- protocol: ITC of acyl-CoA esters binding to rAtACBP6
- study-conditions: ITC, 30°C, 10 mM sodium phosphate buffer pH 7.0; mean of three±S.D.; in kcal/mol

{"columns": ["compound", "system-tested", "ΔG"],
 "data": [
  ["CCCCCCCC/C=C\\CCCCCCCC(=O)SCCNC(=O)CCNC(=O)[C@H](O)C(C)(C)COP(=O)(O)OP(=O)(O)OC[C@H]1O[C@@H](n2cnc3c(N)ncnc32)[C@H](O)[C@@H]1OP(=O)(O)O [18:1, oleoyl-CoA]", "rAtACBP6 (Arabidopsis thaliana, UniProt P57752)", "−10.2±0.1"],
  ["CC/C=C\\C/C=C\\C/C=C\\CCCCCCCC(=O)SCCNC(=O)CCNC(=O)[C@H](O)C(C)(C)COP(=O)(O)OP(=O)(O)OC[C@H]1O[C@@H](n2cnc3c(N)ncnc32)[C@H](O)[C@@H]1OP(=O)(O)O [18:3, linolenoyl-CoA]", "rAtACBP6 (Arabidopsis thaliana, UniProt P57752)", "−9.7±0.1"],
  ["CCCCCCCCCCCCCCCC(=O)SCCNC(=O)CCNC(=O)[C@H](O)C(C)(C)COP(=O)(O)OP(=O)(O)OC[C@H]1O[C@@H](n2cnc3c(N)ncnc32)[C@H](O)[C@@H]1OP(=O)(O)O [16:0, palmitoyl-CoA]", "rAtACBP6 (Arabidopsis thaliana, UniProt P57752)", "−10.2±0.0"]
]}
